Origin of the recorded values: patent US6147097A

experiment: cytotoxicity in MT-4 cells (MTT, culture medium in place of HIV); type: cell-based; details: human; MT-4 cells, no virus, 37° C., 5 days, MTT; Table 3; read-out: CC50
ENDPOINT_LABEL: CC50 at 120 h

Answered examples (2):
MOLECULE | CC50 at 120 h
CC(=O)NCc1nc(C(C)C)c(Sc2cc(Cl)cc(Cl)c2)n1C | 6.3 to 12.5 µg/mL
CCn1c(COCCOC(C)=O)nc(C(C)C)c1Sc1cc(Cl)cc(Cl)c1 | 12.5 to 25 µg/mL

For every listed record, write down its CC50 at 120 h.
1. CC(=O)Cn1c(CO)nc(C(C)C)c1Sc1cc(Cl)cc(Cl)c1
2. CC(C)c1nc(CN)n(CC(F)(F)F)c1Sc1cc(Cl)cc(Cl)c1
3. CC(C)c1nc(COCCOC(N)=O)n(C)c1Sc1cc(Cl)cc(Cl)c1
4. Cc1cc(C)cc(Sc2c(C(C)C)nc(C=NO)n2C)c1
5. COC(=O)C(C)c1nc(C)n(C)c1Sc1cc(C)cc(C)c1 (stereo not drawn)
6. CCCn1c(COC(N)=O)nc(C(C)C)c1Sc1cccc(Cl)c1

1: 10 to 100 µg/mL; 2: 6.3 to 12.5 µg/mL; 3: 6.3 to 12.5 µg/mL; 4: > 100 µg/mL; 5: 10 to 100 µg/mL; 6: 12.5 µg/mL

Input CC(C)c1c(Sc2cc(Cl)cc(Cl)c2)nc(COCCOC(N)=O)n1C , output reported CC50 at 120 h.
12.5 to 25 µg/mL

* * *

assay: cytotoxicity in MT-4 cells (MTT, culture medium in place of HIV); format: cell-based; conditions: human, mt-4 cells
ENDPOINT_LABEL: CC50 at 120 h

MOLECULE | CC50 at 120 h
CC(C)c1nc(CCOC(N)=O)n(CCOC(N)=O)c1Sc1cc(Cl)cc(Cl)c1 [Compound I-147] | 50 to 100 µg/mL

Value sought for every listed molecule: CC50 at 120 h.
1. CC(C)c1nc(CCOC(N)=O)n(Cc2ccncc2)c1Sc1cc(Cl)cc(Cl)c1 [Compound I-138]
2. CC(C)c1nc(CCO)n(Cc2cccc([N+](=O)[O-])c2)c1Sc1cc(Cl)cc(Cl)c1 [Compound 126b]
3. CC(C)c1nc(CN=C(N)N)n(C)c1Sc1cc(Cl)cc(Cl)c1 [Compound I-86]

12.5 µg/mL
3.1 to 6.3 µg/mL
1 µg/mL

The following molecules each have a reported value; give each one's CC50 at 120 h.
1. CC(C)c1nc(CO)n(CCc2ccccc2)c1Sc1cc(Cl)cc(Cl)c1 [Compound I-121]
2. CC(C)c1nc(CO)n(Cc2ccc(N)cc2)c1Sc1cc(Cl)cc(Cl)c1 [Compound 104a]
3. CC(C)c1nc(COC(N)=O)n(C)c1Sc1cc(Cl)cc(Cl)c1 [Compound I-41]
4. CC(C)c1nc(CCCOC(N)=O)n(CCOC(N)=O)c1Sc1cc(Cl)cc(Cl)c1 [Compound I-151]

["12.5 µg/mL", "12.5 to 25 µg/mL", "8.5 µg/mL", "50 to 100 µg/mL"]

* * *

Record form. Attribute: IC50. Fill in for each entry.
molecular target: purified recombinant HIV-1 reverse transcriptase (Human immunodeficiency virus type 1 group M subtype B); construct: purified recombinant HIV-1 reverse transcriptase; made in house; host or cells: Escherichia coli; experiment: reverse transcriptase inhibition, poly(rA)/(dT) template primer, [3H]dTTP uptake; format: biochemical
One number for each entry, in µM.

Look over these answered cases.
COMPOUND | IC50, µM
CC(C)c1nc(CN)n(Cc2cccnc2)c1Sc1cc(Cl)cc(Cl)c1 [Compound I-94] | 4.66
CC(C)c1nc(COC(N)=O)n(CF)c1Sc1cc(Cl)cc(Cl)c1 [Compound I-56] | 2.37
CC(C)c1nc(CCCO)n(Cc2ccncc2)c1Sc1cc(Cl)cc(Cl)c1 [Compound 137c] | 0.71

// moving on: another record for IC50
Hello, please tell me recorded IC50 for this one: CC(C)c1nc(COC(N)=O)n(Cc2cccnc2)c1Sc1cc(Cl)cc(Cl)c1 [Compound I-92]
0.775
